- Test system: wheat germ agglutinin (Triticum aestivum), Alexa647-labelled
- Method Notes: wheat germ agglutinin binders on compound microarrays, profiling panel, artefact control for SMM control-protein annotation, biochemical, small-molecule microarray, 635/667 nm fluorescence (AID 1140);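 further: score merges 667 nm feature emission with signal to noise over triplicate slides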
- Condition Label: WGA-A647 binding, 635 nm fluorescence, higher = more signal
Readout Label: composite z-score
Give your answer as a number; write no unit.

Sample answers from the record:
COC(=O)[C@@]1(Cc2ccc(OC)cc2)[C@H]2c3cc(C(=O)N4CCCC4)n(CCc4cc5ccccc5[nH]4)c3C[C@H]2CN1C(=O)c1ccccc1; 1.05
C=C(CCCC)C(=O)CC[C@@H](OC(=O)c1ccccc1-c1ccccc1C(=O)O)c1cccc(OCCO)c1; -0.0168
CCCC[C@@H]1C[C@H]1[C@@H](NC(=O)c1cccnc1)c1ccc(-c2ccccc2)cc1; -0.166
CN(C)CCCCNC(=O)[C@H]1C[C@H]2C(=O)N3CCC[C@H]3C(=O)N2[C@H]1c1ccc(O)cc1; -0.534
CC(C)(C)OC(=O)CC[C@]1(C(=O)O)N=C(c2ccc(OCCCO)cc2)O[C@H]1c1ccccc1; 0.247
CN1C(=O)C2C(C1=O)C1C=C(c3ccc(CO)cc3)C2C(c2cccs2)N1Cc1cccc(OC(F)(F)F)c1 (stereo not drawn); 0.661
CC=CC(O)C1C=CC2C(=O)N(C)C(=O)C2N1N1CCCCC1 (stereo not drawn); 0.864

Lab note: next compound to report on.
Exercise: I would be grateful if you could share the reported composite z-score for COc1ccc([Si](C)(C)[C@H]2[C@H](CC(=O)N3Cc4ccccc4C[C@H]3CO)O[C@@]3(C(=O)N(Cc4cccc(N5CCCCC5=O)c4)c4ccccc43)[C@@H]2C)cc1 .
Solution: 0.292

* * *

Collected composite z-score values appear next to each entry.
- Method Notes: small-molecule microarray binders of probe aLefty2, primary screen, biochemical, biotinylated probe, 635/667 nm fluorescence (AID 1094);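 further: score merges spot fluorescence near 667 nm with spot signal-to-noise ratio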
- Condition Label: higher = more signal
Give your answer as a number; write no unit.

C=CCNC(=O)[C@@H]1[C@H]2C(=O)O[C@H](c3ccccc3)[C@H](c3ccccc3)N2[C@H](c2ccc(OCCO)cc2)[C@@]12C(=O)N(C(=O)OCCOC)c1ccc(C#CC3=CCCCC3)cc12; -0.0373
C[C@]1(C(=O)NC2CC2)c2ccccc2C(=O)N(Cc2ccc(OC(F)(F)F)cc2)[C@H]1c1ccc(CO)cc1; -0.128
Cc1ccc(F)cc1S(=O)(=O)N[C@@H]1CCN(Cc2ccc(OC(C)C)cc2)C1; -0.218
CN1C(=O)C2C=CC(C(O)c3c(F)cccc3Cl)N(Nc3ccccc3)C2C1=O (centres undefined); 0.244
CCCC=C(CCC)[C@@H](NP(=O)(c1ccccc1)c1ccccc1)c1ccc(C(F)(F)F)cc1; 0.0593
C[n+]1ccc(CCCO)cc1; 0.181
O=C1NCC(=O)N2[C@@H]1C[C@@H](C(=O)O)[C@H]2c1ccc(O)cc1; 0.0875
CC(C)C(O)C1C=CC2C(=O)N(C)C(=O)C2N1Nc1ccccc1 (centres undefined); 0.873

Lab note: next compound to report on.
Exercise: I would be grateful if you could share the reported composite z-score for COc1cc(CO)cc(I)c1O[C@H]1C=C(C(=O)NCCO)C[C@@H](N(Cc2ccc(F)cc2)C(=O)C2CCCO2)[C@@H]1O (some centres undefined) .
Solution: -0.116

* * *

Collected composite z-score values appear next to each entry.
- Method Notes: small-molecule microarray binders of probe aDKK1, primary screen, biochemical, biotinylated probe, 635/667 nm fluorescence (AID 1099);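 further: score merges 667nm spot fluorescence with signal to noise across triplicate slides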
- Condition Label: higher = more signal
Give your answer as a number; write no unit.

Cc1c(NC(=O)/C(C#N)=C/C=C/c2ccccc2[N+](=O)[O-])c(=O)n(-c2ccccc2)n1C; -0.0194
C[C@]1(C(=O)NC2CC2)c2ccccc2C(=O)N(Cc2ccc(OC(F)(F)F)cc2)[C@H]1c1ccc(CO)cc1; -0.0414
CN(C)CCCNC(=O)[C@@]1(C)c2ccccc2C(=O)N(Cc2cc(C(F)(F)F)cc(C(F)(F)F)c2)[C@H]1c1ccc(CO)cc1; 0.202
CCN(CC)c1ccc(N2CC=CC34O[C@@H]5/C=C\CCC(C)OC(=O)C5[C@H]3C(=O)N(CCO)[C@@H]4C2=O)cc1 (stereo partly drawn); -0.18
CC(C)(C)N1CC=CC23O[C@@H]4C=CCOC(=O)[C@@H]4[C@H]2C(=O)N(CCCO)[C@@H]3C1=O (stereo partly drawn); -0.451
C=CC[C@@]1(C(=O)N2CCCCC2)N=C(c2ccc(OCCCO)cc2)O[C@@H]1c1ccccc1; 0.833
CC(C)(C)OC(=O)CC[C@]1(C(=O)NCCN2CCOCC2)N=C(c2ccc(OCCCO)cc2)O[C@H]1c1ccccc1N=[N+]=[N-]; 0.99

Lab note: next molecule to report on.
Exercise: I would be grateful if you could share the reported composite z-score for CCOC(=O)[C@@H]1[C@@H]2C(=O)N(CC)C(=O)[C@@H]2C[C@@H]1Sc1ccccc1 .
Solution: 0.19

* * *

- Tested on: Sam68 (KHDRBS1)
- Method Notes: Sam68 small-molecule binders, primary screen, biochemical, small-molecule microarray, 635 nm fluorescence (AID 1125);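 further: score merges 667 nm channel intensity with signal to noise over triplicate slides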
- Condition Label: small-molecule microarray binding, higher = more signal
Readout Label: composite z-score

Sample answers from the record:
O=C1OCCC=C[C@H]2OC34C=CCN(c5ccc(Cl)cc5)C(=O)[C@H]3N(CCCCCO)C(=O)[C@@H]4C12 (some centres undefined); 0.25
CC(C)NC(=O)[C@@]1(C)c2ccccc2C(=O)N(C(C)C)[C@H]1c1ccc(CO)cc1; 0.121
NC(=O)NCC#Cc1ccc2c(c1)[C@]1(C(=O)N2)[C@H](C(=O)O)[C@H]2C(=O)O[C@H](c3ccccc3)[C@H](c3ccccc3)N2[C@@H]1c1ccccc1OCCO; 0.685
CCOC(=O)[C@H]1C/C=C/C[C@H](C(=O)OCC)C(=O)O[C@H]2[C@@H](OC)O[C@H](CO)[C@@H](OC(=O)Nc3ccc(OC)cc3)[C@@H]2OC1=O; 1.32
COCCOC(=O)N1C(=O)[C@@]2(c3cc(C#CC4=CCCCC4)ccc31)[C@H](C(=O)N1CCN(c3ncccn3)CC1)[C@H]1C(=O)O[C@H](c3ccccc3)[C@H](c3ccccc3)N1[C@@H]2c1ccc(O)cc1; 1.29
COC(=O)[C@@]1(Cc2ccc(OC)cc2)[C@H]2c3cc(C(=O)N4CCCC4)n(CCc4cc5ccccc5[nH]4)c3C[C@H]2CN1C(=O)c1ccccc1; 1.31
CN(C)CCCCNC(=O)[C@H]1C[C@H]2C(=O)N3CCC[C@H]3C(=O)N2[C@H]1c1ccc(O)cc1; -1.11
COCCOC(=O)N1C(=O)[C@@]2(c3cc(C#CC4(O)CCCCCC4)ccc31)[C@H](C(N)=O)[C@H]1C(=O)O[C@H](c3ccccc3)[C@H](c3ccccc3)N1[C@@H]2c1ccccc1OCCO; 1.31
CON(C)C(=O)C=C1C[C@@H](c2cccc(Cl)c2)O[C@@H](c2cccc(Cl)c2)O1; 0.474
COC(=O)[C@@]1(Cc2ccccc2)[C@H]2c3cc(C(=O)N4CCCC4)n(Cc4ccsc4Br)c3C[C@H]2CN1C(=O)c1ccccc1; 1.33

Exercise: I would be grateful if you could share the reported composite z-score for C[N+](C)(C)CCCC[C@@H]1NC(=O)[C@@H]2C[C@H](C(=O)O)[C@H](c3ccc(O)cc3)N2C1=O .
Solution: -2.19

Exercise: Now consider CC(C)(C)N1CC=CC23O[C@@H]4C=CCOC(=O)[C@@H]4[C@H]2C(=O)N(CCCO)[C@@H]3C1=O (some centres undefined) and answer again.
Solution: -1.01

Exercise: Now consider C=C(COC)/C(=C/C[C@@H](OC(=O)c1ccncc1)c1ccc(CO)o1)c1cnc2ccccc2c1 and answer again.
Solution: 1.3

Exercise: Now consider O=C1c2ccccc2[C@](Cc2ccccc2I)(C(=O)NCc2ccccc2)[C@H](c2ccc(CO)cc2)N1C1CCCCC1 and answer again.
Solution: 1.12

* * *

- Method Notes: small-molecule binders of probe aNOTCH3, primary screen, biochemical, small-molecule microarray, 635/667 nm fluorescence (AID 1120);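 further: probe is a biotin-tagged antibody raised against NOTCH3 rather than NOTCH3 protein; score merges spot fluorescence near 667 nm with spot signal to noise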
- Condition Label: higher = more signal
Collected composite z-score values appear next to each entry.
Give your answer as a number; write no unit.

CCOC(=O)C1=CC[C@@H](c2ccc([N+](=O)[O-])cc2)N(S(=O)(=O)c2ccc(C)cc2)[C@H]1c1ccccc1; 0.233
CCN(CC)c1ccc(N2CC=CC34O[C@@H]5/C=C\CCC(C)OC(=O)C5[C@H]3C(=O)N(CCO)[C@@H]4C2=O)cc1 (stereo partly drawn); -0.152
CC1CC/C=C\[C@H]2OC34C=CCN(CCN5CCOCC5)C(=O)[C@H]3N(CCO)C(=O)[C@@H]4C2C(=O)O1 (stereo partly drawn); -0.22
C=CC[C@]1(C(=O)N(C)C)N=C(c2ccc(OCCCO)cc2)O[C@H]1c1ccccc1N=[N+]=[N-]; 0.266
NC(N)=NCc1cn(CCc2c[nH]c3ccccc23)nn1; -0.0647

Exercise: I would be grateful if you could share the reported composite z-score for C#CCNC(=O)[C@H](Cc1ccccc1)NC(=O)[C@@H](N=[N+]=[N-])C(C)C .
Solution: -0.0431

Exercise: Now consider O=C1NCC(=O)N2[C@@H]1C[C@@H](C(=O)O)[C@H]2c1ccc(O)cc1 and answer again.
Solution: 0.0397

Exercise: Now consider COc1ccc(NN2C(C(O)c3ccco3)C=CC3C(=O)N(C4CCCCC4)C(=O)C32)cc1 (stereo not drawn) and answer again.
Solution: 0.353
